Biological target: T1, full-length human GIPR with an N-terminal FLAG tag, overexpressed on HEK-293T cells (human, UniProt P48546 22-466)
T1 sequence (looked up): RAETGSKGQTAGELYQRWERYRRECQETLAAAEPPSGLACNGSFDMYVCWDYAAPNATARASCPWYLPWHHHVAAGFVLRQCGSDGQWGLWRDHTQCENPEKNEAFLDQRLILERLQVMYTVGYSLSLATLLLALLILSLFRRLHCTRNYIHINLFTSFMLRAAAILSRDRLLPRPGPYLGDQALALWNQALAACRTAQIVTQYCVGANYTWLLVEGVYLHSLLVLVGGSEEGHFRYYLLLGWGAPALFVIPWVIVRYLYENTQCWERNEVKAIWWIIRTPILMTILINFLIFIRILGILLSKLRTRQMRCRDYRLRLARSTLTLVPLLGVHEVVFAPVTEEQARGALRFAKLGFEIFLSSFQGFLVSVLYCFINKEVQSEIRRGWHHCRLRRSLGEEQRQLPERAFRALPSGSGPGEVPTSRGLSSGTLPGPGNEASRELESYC
Assay: cell-based or functional assay
Starred links: 1 amine or outer side, 2 acyl side, 3 side chain; linkers in the order of their positions; H or OH if unused. Non-standard residues stand in square brackets, D forms with d. Groups on a side chain read outwards from the residue. No end group written: not given here. *: point of attachment. C18 diacid = O=C(O)CCCCCCCCCCCCCCCCC(=O)*; γGlu = O=C(O)[C@H](CCC(=O)[*:2])N[*:1]; NMeY = CN[C@@H](Cc1ccc(O)cc1)C(=O)O; Stearoyl = CCCCCCCCCCCCCCCCCC(=O)*; AEEA = NCCOCCOCC(=O)O; Aib = CC(C)(N)C(=O)O
QUANTITY_MEASURED: Human GIPR cAMP EC50, HEK293T (pM)
A number alone suffices; assume pM.

Field: example entries. Status: answers known.
| BINDER | QUANTITY_MEASURED | READOUT_UNITS | RECORDED_MEASUREMENT |
| --- | --- | --- | --- |
| [NMeY][Aib]EGTFISDYSIALDR[Aib]AQ[Aib]K([AEEA-AEEA-γGlu-γGlu-Stearoyl])FVNWLLAQKG-OH [Compound No. 203] | Human GIPR cAMP EC50, HEK293T | pM | 1.3 |
| Me-Y[Aib]EGTFISDYSIALDKIAQ[Aib]K([AEEA-AEEA-γGlu-γGlu-C18 diacid])FVNWLLAQRG-OH [Compound No. 175] | Human GIPR cAMP EC50, HEK293T | pM | 0.7 |

Alright, here's another binder for you.
Query: Human GIPR cAMP EC50, HEK293T; subject: [NMeY][Aib]EGTFISDYSIALDR[Aib]HQ[Aib]NFVNWK([AEEA-AEEA-γGlu-C18 diacid])LAQR-NH2 [Compound No. 186] 0.3

Values compiled from patent US20230143604A1.
